- target.under.test: human melanin concentrating hormone receptor (MCHR1) (Homo sapiens, UniProt Q99705, A5T/E4Q)
- Sequence (Q99705 whole entry E4Q/A5T): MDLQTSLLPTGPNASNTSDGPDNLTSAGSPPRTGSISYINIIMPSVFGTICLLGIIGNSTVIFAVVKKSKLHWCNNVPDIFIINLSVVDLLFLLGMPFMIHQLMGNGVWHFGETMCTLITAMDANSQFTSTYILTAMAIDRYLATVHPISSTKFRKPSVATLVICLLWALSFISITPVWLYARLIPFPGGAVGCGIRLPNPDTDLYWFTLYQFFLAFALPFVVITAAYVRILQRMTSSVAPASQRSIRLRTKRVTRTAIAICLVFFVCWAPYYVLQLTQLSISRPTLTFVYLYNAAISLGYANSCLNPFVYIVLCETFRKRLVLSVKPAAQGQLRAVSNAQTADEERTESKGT
- test.method.notes: Radioligand binding assay for assessment of MCHR1 activity
- condition.info: membranes from HEK-293 cells expressing mutated (E4Q, AST) hMCHR1; competition with 0.06-0.1 nM [Phe13,[125I]Tyr19]-MCH, 90 min
assay.readout: pKi
One number for each entry, as −log10 of the molar value.

> print(dat)
                                   molecule  assay.readout  quantitative.readout
1  COc1cc(-n2cnc(OCc3ccc(Cl)cc3)cc2=O)ccc1OCC(C)(C)O [Example H1]            pKi                  7.46
2  COc1cc(-n2cnc(SCc3ccc(Cl)cc3)cc2=O)ccc1OCC(C)(C)O [Example H2]            pKi                  8.15
3  COc1cc(-n2ccc(OCc3ccc(Cl)c(Cl)c3)nc2=O)ccc1OCC(C)(C)O [Example A13]            pKi                  5.94
4  COc1cc(-n2ncc(C#Cc3ccccc3)cc2=O)ccc1OCC(O)C1CC1 (centres unmarked) [Example D2]            pKi                  7.43

q: Give reported pKi value for COc1cc(-n2ccc(COc3ccccc3F)nc2=O)ccc1OCC(C)(C)O [Example C5]
a: 5.66
